system_tested: Cytochrome P450 3A4 (Homo sapiens) (UniProt P08684)
Sequence (P08684 whole entry, looked up): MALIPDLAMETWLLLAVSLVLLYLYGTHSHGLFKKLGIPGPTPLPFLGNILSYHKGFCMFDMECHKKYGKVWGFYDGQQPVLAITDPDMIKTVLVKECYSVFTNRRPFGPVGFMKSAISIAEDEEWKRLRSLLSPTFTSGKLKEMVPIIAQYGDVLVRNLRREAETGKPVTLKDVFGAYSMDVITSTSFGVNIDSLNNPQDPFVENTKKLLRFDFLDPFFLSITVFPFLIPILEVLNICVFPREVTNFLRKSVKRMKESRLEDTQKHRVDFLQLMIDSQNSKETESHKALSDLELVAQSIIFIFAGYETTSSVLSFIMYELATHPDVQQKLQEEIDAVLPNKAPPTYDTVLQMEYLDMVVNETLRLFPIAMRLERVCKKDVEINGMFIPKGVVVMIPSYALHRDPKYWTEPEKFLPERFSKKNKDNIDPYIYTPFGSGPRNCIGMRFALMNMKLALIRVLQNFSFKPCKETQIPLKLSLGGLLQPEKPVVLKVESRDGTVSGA
assay_summary: Cytochrome P450 Family 3 Subfamily A Member 4 (CYP3A4) small molecule antagonists: luciferase reporter qHTS assay (AID 1671201); further: nearly all actives have a fitted effect of over 50% in size
conditions: P450-Glo CYP3A4 enzyme, luciferin luminescence, 1 h; series mostly up to 115 µM
From the text: National Center for Advancing Translational Sciences [NCATS] U.S. Environmental Protection Agency [EPA] National Institutes of Environmental Health Sciences [NIEHS] National Toxicology Program [NTP] U.S. Food and Drug Administration [FDA] Cytochrome P450 (CYP) enzymes are membrane-bound hemeproteins that play a key role in metabolism of drugs and xenobiotics. […] The luciferin products formed are detected with a luciferin detection reagent, and the amount of light produced is proportional to CYP activity. […]
Results filed as inconclusive are left out. Activity calls are given as the source filed them. The call rests on the fitted dose curve; in most records, active means well fitted inhibition curve with a large enough effect in the repeat runs; inconclusive means weak or mixed curves; inactive means no such curve, though single readings can be large or run the other way.
Outcome field: choose from true (active), false (inactive)

Examples with answers:
Cc1cc(N)n(-c2ccccc2)n1	false
Oc1ccc(CCNCCCCCCNCCc2ccccc2)cc1O	false
[O-][n+]1ccc(Cl)cc1	false
CCCCCCOC(=O)c1ccccc1	false
Cc1cc(C)c(C)c(O)c1	false
CCCc1ccc(OC)cc1	false
O=C(O)c1ccccc1[N+](=O)[O-]	false
O=C(Nc1ccc2c(c1)Cc1ccccc1-2)C(F)(F)F	false

Problem: Record lookup: outcome of this test for CC(CC(C#N)(c1ccccc1)C(C)C)N(C)C (stereo not given) ?
Solution: true

Problem: Record lookup: outcome of this test for `CC(=O)c1cccnc1` ?
Solution: false

Problem: Record lookup: outcome of this test for `CC1(C)CC(O)CC(C)(C)N1[O]` ?
Solution: false

Problem: Record lookup: outcome of this test for `O=[N+]([O-])c1ccccc1CCO` ?
Solution: false

Problem: Record lookup: outcome of this test for `Clc1cc(Cl)c2c(c1)N=C1CCCCCN1C2` ?
Solution: false

Problem: Record lookup: outcome of this test for `O=C(Cl)c1cc(Cl)cc(Cl)c1` ?
Solution: false

Problem: Record lookup: outcome of this test for `COC(=O)c1cc(Cl)ccc1[N+](=O)[O-]` ?
Solution: false

====

assay_summary: A CellTox Green Cytotoxicity Assay to monitor cytotoxicity in HEK293 cells - 24 hour (AID 1224875); further: nearly all actives have a fitted effect of over 45% in size
conditions: CellTox Green fluorescence; series mostly up to 76.8 µM
Records with an inconclusive call do not appear. Activity calls are given as the source filed them. The call rests on the fitted dose curve; in most records, active means well fitted activation curve with a large enough effect in the repeat runs; inconclusive means weak or mixed curves; inactive means flat fitted curve, though single readings scatter.
assay_metric: activity change

Solved cases below.
O=C(O)c1ccccc1-n1cc(C(=O)O)c(=O)c2cc(Nc3c(F)cc(F)cc3Cl)c(Cl)cc21	inactive
FC1(F)C(F)(F)C(F)(F)C2(F)C(F)(C1(F)F)C(F)(F)C(F)(F)C1(F)C(F)(F)C(F)(F)C(F)(F)C(F)(F)C12F (stereo not given)	inactive
CCCCC(CC)COCCC#N (stereo not given)	inactive
CO[C@@H]1COCC[C@@H]1N[C@@H]1CC[C@@](C(=O)N2CCc3ncc(C(F)(F)F)cc3C2)(C(C)C)C1	inactive

// next entry
Problem: Form field: reported activity change of `O=C(O)c1ccc2cc(O)ccc2c1`
Solution: inactive

====

system_tested: Cytochrome P450 1A2 (Homo sapiens) (UniProt P05177)
Sequence (P05177 whole entry, looked up): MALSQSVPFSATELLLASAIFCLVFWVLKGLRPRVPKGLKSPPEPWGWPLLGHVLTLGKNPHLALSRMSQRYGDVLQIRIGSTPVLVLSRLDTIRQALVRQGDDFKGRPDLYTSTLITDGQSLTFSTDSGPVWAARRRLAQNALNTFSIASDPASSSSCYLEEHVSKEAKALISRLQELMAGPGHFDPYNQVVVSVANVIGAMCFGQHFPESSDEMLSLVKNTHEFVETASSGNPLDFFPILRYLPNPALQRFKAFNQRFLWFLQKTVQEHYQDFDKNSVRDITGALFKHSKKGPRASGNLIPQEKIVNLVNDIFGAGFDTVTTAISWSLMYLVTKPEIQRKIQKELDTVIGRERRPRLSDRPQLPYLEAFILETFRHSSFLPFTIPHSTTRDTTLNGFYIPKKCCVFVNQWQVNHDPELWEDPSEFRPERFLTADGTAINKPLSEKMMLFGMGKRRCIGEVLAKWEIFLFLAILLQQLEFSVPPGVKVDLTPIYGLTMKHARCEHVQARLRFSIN
assay_summary: Cytochrome P450 Family 1 Subfamily A Member 2 (CYP1A2) small molecule antagonists: luciferase reporter qHTS assay (AID 1671199); further: nearly all actives have a fitted effect of over 50% in size
conditions: P450-Glo CYP1A2 enzyme, luciferin luminescence, 1 h; series mostly up to 115 µM
Excerpt: National Center for Advancing Translational Sciences [NCATS] U.S. Environmental Protection Agency [EPA] National Institutes of Environmental Health Sciences [NIEHS] National Toxicology Program [NTP] U.S. Food and Drug Administration [FDA] Cytochrome P450 (CYP) enzymes are membrane-bound hemeproteins that play a key role in metabolism of drugs and xenobiotics. […] The luciferin products formed are detected with a luciferin detection reagent, and the amount of light produced is proportional to CYP activity. […]
Records with an inconclusive call do not appear. Active and inactive are the calls of the source. Calls come from the whole dose curve; as a rule, active = well fitted inhibition curve with a large enough effect in the repeat runs; inconclusive = weak or mixed curves; inactive = no such curve, though single readings can be large or run the other way.
Outcome field: choose from 1 (yes) (active), 0 (no) (inactive)

Examples with answers:
O=C(O)c1c2ccccc2cc2ccccc12	1 (yes)
C=CC(C)(O)CC/C=C(/C)CCC=C(C)C (stereo not drawn)	1 (yes)

Now consider the entry below.
Problem: Record lookup: outcome of this test for `NC(=O)c1ccccc1` ?
Solution: 0 (no)
